- tested on: Integrin alpha-V/beta-3 (Homo sapiens, UniProt P05106+P06756)
- Sequence (P05106 27-788 limits assumed): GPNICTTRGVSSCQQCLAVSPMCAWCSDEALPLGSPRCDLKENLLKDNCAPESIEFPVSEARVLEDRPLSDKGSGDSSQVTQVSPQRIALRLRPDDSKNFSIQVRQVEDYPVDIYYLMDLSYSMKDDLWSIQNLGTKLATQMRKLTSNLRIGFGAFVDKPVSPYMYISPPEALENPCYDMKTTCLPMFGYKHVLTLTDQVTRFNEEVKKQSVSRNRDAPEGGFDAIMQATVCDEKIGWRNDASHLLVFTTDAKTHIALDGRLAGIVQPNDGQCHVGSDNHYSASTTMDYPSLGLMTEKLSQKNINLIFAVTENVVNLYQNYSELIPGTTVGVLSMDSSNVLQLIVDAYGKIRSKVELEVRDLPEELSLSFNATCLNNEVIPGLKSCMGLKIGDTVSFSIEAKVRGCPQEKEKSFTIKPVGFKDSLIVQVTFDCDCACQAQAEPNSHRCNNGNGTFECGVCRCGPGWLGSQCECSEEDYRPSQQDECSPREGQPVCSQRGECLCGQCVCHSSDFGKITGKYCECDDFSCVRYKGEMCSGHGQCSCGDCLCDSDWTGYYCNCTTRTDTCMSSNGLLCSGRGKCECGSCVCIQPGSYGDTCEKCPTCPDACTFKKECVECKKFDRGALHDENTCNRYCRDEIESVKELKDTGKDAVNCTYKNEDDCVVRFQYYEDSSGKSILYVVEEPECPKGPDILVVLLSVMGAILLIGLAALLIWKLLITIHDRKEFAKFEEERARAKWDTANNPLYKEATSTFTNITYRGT
- Sequence (P06756 31-889 limits assumed): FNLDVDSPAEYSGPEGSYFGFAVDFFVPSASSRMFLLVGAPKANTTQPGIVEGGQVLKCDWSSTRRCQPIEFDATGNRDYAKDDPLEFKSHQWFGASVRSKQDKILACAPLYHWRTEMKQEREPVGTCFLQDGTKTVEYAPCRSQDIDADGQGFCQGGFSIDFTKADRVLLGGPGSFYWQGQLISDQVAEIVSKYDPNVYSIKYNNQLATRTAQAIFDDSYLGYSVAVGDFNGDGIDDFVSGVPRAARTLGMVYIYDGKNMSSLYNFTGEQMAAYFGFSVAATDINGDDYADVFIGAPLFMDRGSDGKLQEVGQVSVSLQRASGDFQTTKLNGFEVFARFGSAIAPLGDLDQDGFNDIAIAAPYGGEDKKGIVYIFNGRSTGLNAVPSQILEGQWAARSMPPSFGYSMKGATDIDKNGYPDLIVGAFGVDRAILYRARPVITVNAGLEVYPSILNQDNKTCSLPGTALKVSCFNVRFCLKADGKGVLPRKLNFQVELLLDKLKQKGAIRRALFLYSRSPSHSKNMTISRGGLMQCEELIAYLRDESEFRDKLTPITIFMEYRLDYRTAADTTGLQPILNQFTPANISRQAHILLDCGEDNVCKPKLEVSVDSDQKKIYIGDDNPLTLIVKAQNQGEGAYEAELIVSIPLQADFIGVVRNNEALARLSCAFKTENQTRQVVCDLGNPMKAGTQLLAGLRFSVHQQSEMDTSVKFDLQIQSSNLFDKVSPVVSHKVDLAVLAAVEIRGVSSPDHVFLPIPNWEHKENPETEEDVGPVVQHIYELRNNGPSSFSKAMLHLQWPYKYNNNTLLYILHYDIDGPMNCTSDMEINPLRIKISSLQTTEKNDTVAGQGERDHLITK
- Sequence (P06756 891-1048 limits assumed): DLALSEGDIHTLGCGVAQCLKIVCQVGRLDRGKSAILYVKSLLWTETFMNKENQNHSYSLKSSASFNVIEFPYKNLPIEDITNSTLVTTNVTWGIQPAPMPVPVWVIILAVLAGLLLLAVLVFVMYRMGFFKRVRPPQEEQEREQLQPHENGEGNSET
- test method notes: Inhibitory activity against […] integrin
reported metric: IC50

IC50 measured on Cc1noc(C)c1S(=O)(=O)N[C@@H](CNC(=O)C[C@H]1CC(c2ccc(C(=N)N)cc2)=NO1)C(=O)O = > 10 µM

* * *

- Tested on: Canis familiaris
- test method notes: Inhibition of ex vivo platelet aggregation in dogs after 24 hr of administration of iv bolus dose of 0.025 mg/kg
- Assay type: functional
- measurement conditions: Canis lupus familiaris
reported metric: inhibition in vivo at 0.025 mg/kg (%)
Answers are plain numbers, in %.

In the examples that follow, each entry is paired with its recorded inhibition in vivo at 0.025 mg/kg.
N=C(N)c1ccc(C2=NOC(CC(=O)NC[C@H](NS(=O)(=O)c3cccc4cccnc34)C(=O)O)C2)cc1 (stereo partly drawn)    67
N=C(N)c1ccc(C2=NOC(CC(=O)NC[C@H](NS(=O)(=O)c3ccccc3C(F)(F)F)C(=O)O)C2)cc1 (stereo partly drawn)    45
Cc1nc(C)c(S(=O)(=O)N[C@@H](CNC(=O)CC2CC(c3ccc(C(=N)N)cc3)=NO2)C(=O)O)s1 (stereo partly drawn)    8
Cc1ccccc1S(=O)(=O)N[C@@H](CNC(=O)CC1CC(c2ccc(C(=N)N)cc2)=NO1)C(=O)O (stereo partly drawn)    99
N=C(N)c1ccc(C2=NOC(CC(=O)NC[C@H](NS(=O)(=O)Cc3ccccc3)C(=O)O)C2)cc1 (stereo partly drawn)    26
Cc1cccc(S(=O)(=O)N[C@@H](CNC(=O)C[C@H]2CC(c3ccc(C(=N)N)cc3)=NO2)C(=O)O)c1    24

Give one value of inhibition in vivo at 0.025 mg/kg per listed molecule.
1. CC(=O)Nc1cnc(S(=O)(=O)N[C@@H](CNC(=O)CC2CC(c3ccc(C(=N)N)cc3)=NO2)C(=O)O)s1 (stereo partly drawn)
2. Cc1noc(C)c1S(=O)(=O)N[C@@H](CNC(=O)CC1CC(c2ccc(C(=N)N)cc2)=NO1)C(=O)O (stereo partly drawn)

output:
68
33

* * *

- System: Canis familiaris
- test method notes: Inhibition of ex vivo platelet aggregation in dogs after 24 hr of administration of iv bolus dose of 0.025 mg/kg
- Type: functional
- measurement conditions: Canis lupus familiaris
Exercise: state measured inhibition in vivo at 0.025 mg/kg for each of the compounds provided.
Answers are plain numbers, in %.

Below: 2 compounds and their reported inhibition in vivo at 0.025 mg/kg.
N=C(N)c1ccc(C2=NOC(CC(=O)NC[C@H](NS(=O)(=O)c3ccccc3-c3ccccc3)C(=O)O)C2)cc1 (stereo partly drawn)    65
Cc1cccc(S(=O)(=O)N[C@@H](CNC(=O)C[C@@H]2CC(c3ccc(C(=N)N)cc3)=NO2)C(=O)O)c1    16

Consider now this further compound.
Short answer for N=C(N)c1ccc(C2=NOC(CC(=O)NC[C@H](NS(=O)(=O)c3cccc4nsnc34)C(=O)O)C2)cc1 (stereo partly drawn) : inhibition in vivo at 0.025 mg/kg was 0

* * *

- tested on: Integrin alpha-4/beta-1 (Homo sapiens, UniProt P05556+P13612)
- Sequence (P05556 whole entry): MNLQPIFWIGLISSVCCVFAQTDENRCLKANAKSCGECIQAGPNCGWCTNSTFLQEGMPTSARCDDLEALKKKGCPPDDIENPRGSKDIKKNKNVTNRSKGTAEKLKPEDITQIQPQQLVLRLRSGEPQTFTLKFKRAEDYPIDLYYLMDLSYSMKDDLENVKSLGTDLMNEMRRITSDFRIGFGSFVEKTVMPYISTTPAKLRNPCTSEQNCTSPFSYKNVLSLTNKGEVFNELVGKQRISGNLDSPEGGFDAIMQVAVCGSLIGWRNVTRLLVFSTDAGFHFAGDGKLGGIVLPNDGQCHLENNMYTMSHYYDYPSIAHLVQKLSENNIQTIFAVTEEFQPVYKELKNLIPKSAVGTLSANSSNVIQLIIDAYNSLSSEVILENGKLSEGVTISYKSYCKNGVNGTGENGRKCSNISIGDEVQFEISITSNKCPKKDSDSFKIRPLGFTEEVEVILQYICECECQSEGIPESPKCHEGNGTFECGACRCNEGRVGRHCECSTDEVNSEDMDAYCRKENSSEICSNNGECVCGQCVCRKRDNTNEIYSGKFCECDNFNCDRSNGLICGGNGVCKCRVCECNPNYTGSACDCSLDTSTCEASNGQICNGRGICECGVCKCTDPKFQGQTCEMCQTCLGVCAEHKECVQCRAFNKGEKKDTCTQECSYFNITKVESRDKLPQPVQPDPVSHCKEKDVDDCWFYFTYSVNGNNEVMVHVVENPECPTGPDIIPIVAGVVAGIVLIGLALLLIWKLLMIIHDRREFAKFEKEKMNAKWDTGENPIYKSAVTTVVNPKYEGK
- Sequence (P13612 whole entry): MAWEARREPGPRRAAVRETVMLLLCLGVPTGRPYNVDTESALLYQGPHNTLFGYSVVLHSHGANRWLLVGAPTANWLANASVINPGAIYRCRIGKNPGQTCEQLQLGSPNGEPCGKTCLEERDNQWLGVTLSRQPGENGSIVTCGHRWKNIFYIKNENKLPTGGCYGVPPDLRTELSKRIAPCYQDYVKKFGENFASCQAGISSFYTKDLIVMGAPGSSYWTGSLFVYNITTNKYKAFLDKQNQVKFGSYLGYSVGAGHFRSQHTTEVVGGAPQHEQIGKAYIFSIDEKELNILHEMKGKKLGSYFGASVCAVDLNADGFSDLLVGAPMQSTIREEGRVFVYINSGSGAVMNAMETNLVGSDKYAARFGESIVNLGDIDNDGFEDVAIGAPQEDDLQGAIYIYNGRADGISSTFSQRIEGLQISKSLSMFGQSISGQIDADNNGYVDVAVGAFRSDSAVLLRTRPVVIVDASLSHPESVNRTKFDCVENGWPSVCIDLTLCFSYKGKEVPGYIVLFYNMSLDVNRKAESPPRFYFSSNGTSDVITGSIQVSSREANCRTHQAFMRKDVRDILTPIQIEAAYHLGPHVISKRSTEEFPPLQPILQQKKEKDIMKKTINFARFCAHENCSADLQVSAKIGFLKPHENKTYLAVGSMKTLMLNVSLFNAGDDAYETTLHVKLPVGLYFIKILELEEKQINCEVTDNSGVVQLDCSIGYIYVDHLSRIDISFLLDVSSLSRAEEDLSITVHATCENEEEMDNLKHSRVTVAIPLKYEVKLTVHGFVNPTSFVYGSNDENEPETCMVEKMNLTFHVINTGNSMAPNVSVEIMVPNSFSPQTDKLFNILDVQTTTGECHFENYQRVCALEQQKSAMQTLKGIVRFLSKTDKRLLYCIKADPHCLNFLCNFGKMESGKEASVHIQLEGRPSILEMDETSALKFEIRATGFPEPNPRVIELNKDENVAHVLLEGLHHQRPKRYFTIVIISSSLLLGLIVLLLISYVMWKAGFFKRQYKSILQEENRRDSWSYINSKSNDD
- test method notes: Inhibitory activity against alpha4-beta1 integrin
reported metric: IC50

In plain terms, Cc1noc(C)c1S(=O)(=O)N[C@@H](CNC(=O)C[C@H]1CC(c2ccc(C(=N)N)cc2)=NO1)C(=O)O has a documented IC50 of > 100 µM

* * *

- tested on: Integrin alpha-IIb/beta-3 (Canis familiaris)
- test method notes: Dissociation constant for unactivated Fibrinogen Receptor
reported metric: Kd (nM)
Give bare numbers, in nM.

Test item CCCCOC(=O)N[C@@H](CNC(=O)C[C@H]1CC(c2ccc(C(=N)N)cc2)=NO1)C(=O)OC ; Integrin alpha-IIb/beta-3 (Canis familiaris); reported Kd was 2.36

* * *

Task for the reader: assign each of the following compounds its reported Kd.
- tested on: Integrin alpha-IIb/beta-3 (Canis familiaris)
- test method notes: Dissociation constant for activated Fibrinogen Receptor
Give bare numbers, in nM.

Cc1noc(C)c1S(=O)(=O)N[C@@H](CNC(=O)C[C@@H]1CC(c2ccc(C(=N)N)cc2)=NO1)C(=O)O    2.7
Cc1noc(C)c1S(=O)(=O)N[C@H](CNC(=O)C[C@H]1CC(c2ccc(C(=N)N)cc2)=NO1)C(=O)O    5.9
Cc1noc(C)c1S(=O)(=O)N[C@H](CNC(=O)C[C@@H]1CC(c2ccc(C(=N)N)cc2)=NO1)C(=O)O    186

Sure, the documented Kd for Cc1noc(C)c1S(=O)(=O)N[C@@H](CNC(=O)C[C@H]1CC(c2ccc(C(=N)N)cc2)=NO1)C(=O)O is 0.6
